Endpoint: IC50. System: Acetylcholinesterase (AChE) (Homo sapiens, UniProt P22303). Items follow.
Sequence (P22303 32-614, species assumed): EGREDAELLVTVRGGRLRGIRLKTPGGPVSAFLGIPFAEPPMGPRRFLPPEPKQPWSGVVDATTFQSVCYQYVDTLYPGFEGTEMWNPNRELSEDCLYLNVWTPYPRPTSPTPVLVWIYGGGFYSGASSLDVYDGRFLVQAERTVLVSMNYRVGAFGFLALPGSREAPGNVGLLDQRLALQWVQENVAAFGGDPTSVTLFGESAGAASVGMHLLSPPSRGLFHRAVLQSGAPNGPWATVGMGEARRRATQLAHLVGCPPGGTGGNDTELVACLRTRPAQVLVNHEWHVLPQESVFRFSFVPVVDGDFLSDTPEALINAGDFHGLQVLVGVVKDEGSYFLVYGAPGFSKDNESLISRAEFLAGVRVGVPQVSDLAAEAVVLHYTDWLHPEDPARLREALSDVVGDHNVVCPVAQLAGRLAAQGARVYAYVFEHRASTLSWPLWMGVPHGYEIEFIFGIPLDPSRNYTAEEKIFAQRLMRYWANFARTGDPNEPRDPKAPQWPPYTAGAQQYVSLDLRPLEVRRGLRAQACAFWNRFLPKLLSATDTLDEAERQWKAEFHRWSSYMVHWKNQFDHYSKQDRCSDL
Quick note: number first, unit second.

O=c1c(O)c(-c2ccc(O)c(O)c2)oc2cc(O)cc(O)c12 [Quercetin, quercetin]; 220 µM
O=C(O)/C=C/c1ccc(O)c(O)c1 [Caffeic acid]; 66.9 µM

Input line: Item O=c1c(O[C@@H]2O[C@H](CO)[C@@H](O)[C@H](O)[C@H]2O)c(-c2ccc(O)cc2)oc2cc(O)cc(O)c12 [Astragalin, astragalin] has what recorded IC50?
Output line: 162 µM

// data source = paper PMC6269587
